Tested target: T1, HLA-DRB1*04:01 (human)
T1 construct: MHC class II molecule; how it was prepared for the assay is not described
Assay comment: HLA class II competition binding assay
Measure name: IC50 (nM)
Number in nM, nothing else.

QUERY: Quick one: give measured IC50 for LSQLQTYMIQFDQYI [ApoB100 peptide 3563.0012]
RESULT: 19
